Target Under Test: cGMP-dependent 3',5'-cyclic phosphodiesterase (Homo sapiens, UniProt O00408)
Sequence (O00408 whole entry): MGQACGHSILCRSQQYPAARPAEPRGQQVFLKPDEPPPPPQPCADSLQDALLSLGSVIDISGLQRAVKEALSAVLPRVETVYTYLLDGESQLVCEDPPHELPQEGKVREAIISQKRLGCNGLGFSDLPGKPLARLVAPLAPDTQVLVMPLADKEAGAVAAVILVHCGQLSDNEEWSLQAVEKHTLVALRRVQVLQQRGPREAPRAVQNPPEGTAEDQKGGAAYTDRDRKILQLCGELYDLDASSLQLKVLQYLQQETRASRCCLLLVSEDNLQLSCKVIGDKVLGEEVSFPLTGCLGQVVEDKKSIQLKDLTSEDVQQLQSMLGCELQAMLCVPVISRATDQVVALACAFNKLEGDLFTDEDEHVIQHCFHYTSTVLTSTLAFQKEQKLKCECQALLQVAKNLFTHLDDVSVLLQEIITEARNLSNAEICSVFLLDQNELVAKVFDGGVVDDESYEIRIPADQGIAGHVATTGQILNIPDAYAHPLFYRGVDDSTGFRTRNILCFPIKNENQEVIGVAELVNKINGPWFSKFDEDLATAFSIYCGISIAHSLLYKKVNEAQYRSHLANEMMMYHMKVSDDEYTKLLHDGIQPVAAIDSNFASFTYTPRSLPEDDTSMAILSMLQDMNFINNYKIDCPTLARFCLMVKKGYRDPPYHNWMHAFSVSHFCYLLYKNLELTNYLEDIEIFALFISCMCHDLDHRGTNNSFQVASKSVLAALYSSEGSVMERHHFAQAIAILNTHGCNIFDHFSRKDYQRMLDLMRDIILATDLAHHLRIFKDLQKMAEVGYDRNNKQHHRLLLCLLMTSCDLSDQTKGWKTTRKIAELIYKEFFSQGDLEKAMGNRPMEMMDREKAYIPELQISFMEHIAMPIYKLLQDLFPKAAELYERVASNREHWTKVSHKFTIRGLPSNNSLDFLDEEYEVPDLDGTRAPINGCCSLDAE
pIC50: −log10 of the molar value.
Readout: pIC50

Q: Given "N#Cc1c(C2CCCC2)c2ccc(NCc3ccc(F)cn3)cc2n(CC2CCCC2)c1=O" , respond with its pIC50.
Result: < 5.00

====

Readout: IC50 (µM)
Your answer should be a plain number; it is taken to be in µM.

Q: Answer briefly: IC50 recorded on cAMP and cAMP-inhibited cGMP 3',5'-cyclic phosphodiesterase 10A (Homo sapiens) for "N#Cc1c(C2CCCC2)c2ccc(NCc3ccc(F)cn3)cc2n(CC2CCCC2)c1=O"
Sequence (Q9Y233 whole entry): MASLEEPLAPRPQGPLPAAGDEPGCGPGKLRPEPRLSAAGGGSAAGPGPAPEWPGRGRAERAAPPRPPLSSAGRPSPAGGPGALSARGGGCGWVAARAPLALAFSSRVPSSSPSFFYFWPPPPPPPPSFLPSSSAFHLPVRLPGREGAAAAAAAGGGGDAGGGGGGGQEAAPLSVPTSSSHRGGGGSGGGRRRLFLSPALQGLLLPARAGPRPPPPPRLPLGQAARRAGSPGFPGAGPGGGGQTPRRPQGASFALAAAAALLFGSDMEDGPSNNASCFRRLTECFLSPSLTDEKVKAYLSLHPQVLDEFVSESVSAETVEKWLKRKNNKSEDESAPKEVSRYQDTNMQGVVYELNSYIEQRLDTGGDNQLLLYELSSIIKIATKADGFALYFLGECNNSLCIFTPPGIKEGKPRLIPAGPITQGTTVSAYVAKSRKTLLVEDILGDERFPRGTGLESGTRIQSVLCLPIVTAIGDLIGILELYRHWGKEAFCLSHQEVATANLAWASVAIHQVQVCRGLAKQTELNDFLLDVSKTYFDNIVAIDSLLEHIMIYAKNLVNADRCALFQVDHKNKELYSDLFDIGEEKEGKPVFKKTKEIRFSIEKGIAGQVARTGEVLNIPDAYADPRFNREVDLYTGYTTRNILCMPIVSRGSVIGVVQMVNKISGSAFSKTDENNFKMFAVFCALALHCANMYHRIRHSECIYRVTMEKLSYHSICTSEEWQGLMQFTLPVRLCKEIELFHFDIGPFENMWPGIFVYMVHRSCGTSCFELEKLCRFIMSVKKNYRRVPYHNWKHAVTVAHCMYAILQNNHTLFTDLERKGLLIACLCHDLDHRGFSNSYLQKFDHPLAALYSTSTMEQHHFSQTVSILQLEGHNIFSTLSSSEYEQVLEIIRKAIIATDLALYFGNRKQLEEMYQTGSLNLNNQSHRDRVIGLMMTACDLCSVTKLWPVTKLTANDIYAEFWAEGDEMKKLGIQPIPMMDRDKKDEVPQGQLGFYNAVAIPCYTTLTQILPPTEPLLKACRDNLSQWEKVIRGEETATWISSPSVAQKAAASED
Result: 3.03
